Read-out: Potassium channel subfamily K member 1 (KCNK1), KCNK1 (gene 3775)
Assay: LTEA_HepaRG_KCNK1: Life Technologies and Expression Analysis (LTEA) Assay for Potassium channel subfamily K member 1 (KCNK1) using HepaRG (AID 2283511)
Conditions: mRNA level, 48 h; actives raise or lower the signal
The source made the active and inactive calls. The calls were made as follows: active = hit-call score of the fitted dose curve at least 0.9, where 1 is the maximum; inactive = score below 0.9.
observation.type: AC50

molecule	result
CC(O)CC(C)(C)O (stereo not drawn)	inactive
Cc1cc(F)ccc1-c1cc(N2CC[C@@H](O)[C@H]2CO)ncc1N(C)C(=O)C(C)(C)c1cc(C(F)(F)F)cc(C(F)(F)F)c1	inactive
O=c1[nH]sc2ccccc12	inactive
CCCCCCCCCCCC[N+](C)(C)C	64.7 µM (active)
CCN(CC)C(=O)c1cc(S(=O)(=O)Cc2ccccc2)c(N2CCC(c3ccccc3)CC2)cc1N(CC)CCN(C)C	inactive
O=C(O)Cc1cc(I)c(Oc2ccc(O)c(I)c2)c(I)c1	64.3 µM (active)
CC1=CC(=O)/C(=C(/C)O)C(=O)O1	inactive

Continue with the next molecule.
Give reported AC50 value for OCCO inactive

Just for reference, PubChem BioAssay (EPA / NIEHS) is where these values come from.
